Measured values drawn from patent US20260042755A1 for this set.

# target_desc: GPR3 (Homo sapiens, UniProt P46089)
# Construct: expressed in transfected cells; host or cells: CHO cells
# Sequence (P46089 whole entry, species assumed): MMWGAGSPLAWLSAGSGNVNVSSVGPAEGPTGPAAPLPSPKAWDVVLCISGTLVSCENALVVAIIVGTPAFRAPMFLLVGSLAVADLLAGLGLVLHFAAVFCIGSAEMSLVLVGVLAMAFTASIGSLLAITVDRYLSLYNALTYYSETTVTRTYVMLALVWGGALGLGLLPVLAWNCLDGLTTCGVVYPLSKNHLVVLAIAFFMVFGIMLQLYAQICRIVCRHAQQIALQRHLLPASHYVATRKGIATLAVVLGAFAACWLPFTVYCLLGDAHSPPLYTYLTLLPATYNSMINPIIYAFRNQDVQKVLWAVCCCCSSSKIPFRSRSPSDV
# protocol_details: GPR3 antagonist functional cAMP assay (LANCE Ultra cAMP TR-FRET, CHO cells stably expressing GPR3)
# Format: cell-based
# conditions_used: CHO cells stably expressing GPR3, cAMP assay
pIC50: −log10 of the molar value.
observed_property: pIC50

CC(=O)N1CCc2nc(N3CCC(Oc4ccc(F)cc4F)CC3)c(C3CCN(S(C)(=O)=O)C3)nc2C1 (stereo not drawn) [Compound 543] : 4.52 to 6.00

Could you tell me pIC50 for each of these compounds? They are listed below.
1. CCn1cc(-c2nc3cnc([C@@H](O)C(C)(C)O)cc3nc2N2CCC(Oc3ccc(F)cc3F)CC2)cn1 (single isomer, unassigned) [Compound 570]
2. CC(=O)N1CCc2nc(N3CCC(Oc4ccc(C#N)cc4F)CC3)c(-c3cnn(C)c3)nc2C1 [Compound 500]

A)
["4.52 to 6.00", "4.52 to 6.00"]
